FYI, the data here is from the Human Domainome abundance scans (Beltran et al. 2025).

B1: Ankyrin repeat and SAM domain-containing protein 6, residues 774 to 836; numbered along this chain, Q68DC2 (parent)
chain: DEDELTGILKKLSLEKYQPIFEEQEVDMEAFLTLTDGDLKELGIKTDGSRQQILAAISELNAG

Variants of: B1
Method notes: abundance fitness (aPCA) (normalised: wild type 0, dead -1); higher = more abundant; growth selection in yeast, the domain comes from the species named
Condition summary: Homo sapiens
Catalogue of abundance fitness values
# answer = number (no unit)

    mut  data_value
0  R50Q      -0.621

Summary for this variant, A30R : abundance fitness is 0.096

The measured abundance fitness associated with T33M reads -0.048

The recorded abundance fitness for entry E15S equals -0.143

The variant listed as E23Q has a reported abundance fitness of -0.17

Form: variant = G37N ; abundance fitness = -0.095

Per the record, K11Q has abundance fitness of -0.099

get_value(item= L60R , readout=abundance fitness) returns -0.108

The reported abundance fitness of the variant D27W was -0.857

Looking up D27F , I see its abundance fitness listed as -1.25

The recorded abundance fitness for entry T35I equals -0.695

The variant identified as S13N registered its abundance fitness at 0.039

GET /value?item= T46M &field=abundance fitness returns -0.039

Just so you know, measured abundance fitness for L9H came out at -1.07
